From: patent US10941182

# assayTarget: T1, rat APJ receptor (rat, UniProt Q9JHG3 1-377)
# T1 sequence (looked up): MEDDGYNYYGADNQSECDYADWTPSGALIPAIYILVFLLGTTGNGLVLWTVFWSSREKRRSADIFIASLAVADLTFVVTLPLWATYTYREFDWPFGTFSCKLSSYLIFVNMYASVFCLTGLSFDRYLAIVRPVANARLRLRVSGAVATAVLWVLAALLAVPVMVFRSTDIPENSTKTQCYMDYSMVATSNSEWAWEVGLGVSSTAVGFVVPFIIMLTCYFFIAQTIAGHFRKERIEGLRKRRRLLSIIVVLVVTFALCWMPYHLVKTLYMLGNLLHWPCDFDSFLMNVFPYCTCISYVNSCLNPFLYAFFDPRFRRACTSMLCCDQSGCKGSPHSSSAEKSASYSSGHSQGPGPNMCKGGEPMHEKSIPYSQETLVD
# testDetails: cell-based or functional assay
Starred links: 1 amine or outer side, 2 acyl side, 3 side chain; linkers in the order of their positions; H or OH if unused. Non-standard residues stand in square brackets, D forms with d. Primed or numbered codes have the meaning given here. *: point of attachment. AC4Abu = α-carboxy-4-aminobutyric acid, O=C(C(CCN[*:1])C(=O)[*:3])[*:2]; Oic = O=C(O)[C@@H]1C[C@@H]2CCCC[C@@H]2N1; Phe(4-Cl) = N[C@@H](Cc1ccc(Cl)cc1)C(=O)O; γGlu = O=C(O)[C@H](CCC(=O)[*:2])N[*:1]; NMeR = CN[C@@H](CCCNC(=N)N)C(=O)O; Palmitoyl = CCCCCCCCCCCCCCCC(=O)*; Tridecanoyl = CCCCCCCCCCCCC(=O)*; Cha = N[C@@H](CC1CCCCC1)C(=O)O; αMeL = CC(C)C[C@](C)(N)C(=O)O; β3hP = O=C(O)C[C@@H]1CCCN1; Nle = CCCC[C@H](N)C(=O)O; Dab = NCC[C@H](N)C(=O)O; Pip′ = not defined here; AEEA = NCCOCCOCC(=O)O; Aib = CC(C)(N)C(=O)O; NPrGly = CCCNCC(=O)O; BLeu = β-leucine
endpoint: EC50 Rat APJ Receptor (nM)
Return type: number; implicit unit nM.

Palmitoyl-[AC4Abu][AEEA][AEEA][dQ]RP[NMeR][Cha][NPrGly]HKG[Pip′][Nle][Aib][Phe(4-Cl)]-OH [SEQ ID NO: 643] : 3.79
Tridecanoyl-[γGlu][AEEA][AEEA][BLeu]RP[NMeR][BLeu]SHKG[Oic][Nle]P[Phe(4-Cl)]-OH [SEQ ID NO: 394] : 1.5

// next entry
Task item: Item Palmitoyl-[γGlu][AEEA][AEEA][dQ]RP[NMeR][αMeL]SH[Dab]G[Oic][Nle][β3hP][Phe(4-Cl)]-OH [SEQ ID NO: 638] : provide EC50 Rat APJ Receptor
Reply: 9.32
